Assay: qHTS for Inhibitors of human tyrosyl-DNA phosphodiesterase 1 (TDP1): qHTS in cells in presence of CPT; further: nearly all actives have a fitted effect of over 55% in size; further: potency means the concentration at half of the fitted maximal effect
Conditions: chicken DT40 Tdp1-/-;hTDP1 cells + 20 nM CPT, ATP luminescence, 48 h; series mostly up to 46.2 µM
The campaign covered roughly 420,000 compounds. About 50,000 (12%) were called active. Roughly 26% stayed inconclusive and do not appear here. The sample holds actives, similar compounds and a random draw of the others, so the mix is not that of the screen.
measurement type: Potency

>  <molecule>
CCOc1ccc2[nH]c3nc(SCC(=O)NC4CCCC4)nnc3c2c1

>  <Potency>
5.17 µM (active)

$$$$
>  <molecule>
NNC(=O)C1CC(O)CN1S(=O)(=O)c1ccc(Cl)cc1 (stereo unspecified)

>  <Potency>
inactive

$$$$
>  <molecule>
C=CCSc1ccc(S(=O)(=O)N2CCN(C)CC2)cn1

>  <Potency>
inactive

$$$$
>  <molecule>
O=C(Nc1c(Br)cc2c(c1Br)Cc1ccccc1-2)C(F)(F)F

>  <Potency>
inactive

$$$$
>  <molecule>
COc1ccc(-c2cc(=O)oc3cc(OC(C)C(=O)NCC4CCC(C(=O)O)CC4)ccc23)cc1 (stereo unspecified)

>  <Potency>
inactive

$$$$

We next turn to a different molecule, shown below.
I would be grateful if you could share the reported Potency for O=C(CSc1nnc2c(n1)[nH]c1ccccc12)NC1CCCCC1 .
inactive

---

Test: qHTS for Inhibitors of human tyrosyl-DNA phosphodiesterase 1 (TDP1): qHTS in cells in presence of CPT; further: nearly all actives have a fitted effect of over 55% in size
Settings: chicken DT40 Tdp1-/-;hTDP1 cells + 20 nM CPT, ATP luminescence, 48 h; series mostly up to 46.2 µM
About 50,000 (12%) of roughly 420,000 compounds were called active. Another 26% or so got no clear call; they are omitted. The call rests on the fitted dose curve; in most records, active means well fitted inhibition curve with a large enough effect; inconclusive means small, poorly fitted or top-dose-only effect; inactive means flat fitted curve, though single readings scatter. This is one part of a sample in which actives are shown more often than they occur.
I would appreciate it if you answered using one of these outcomes: y (active), n (inactive)

>  <smiles notation>
Cc1ccc(S(=O)(=O)NCC(=O)N2CCN(c3ccccn3)CC2)cc1

>  <class>
n

$$$$

Just curious, what result did CCc1cccc(NC(=O)c2cnc(N3CCOCC3)c3ccccc23)c1 get here?
y

Just curious, what result did CSc1ncccc1C(=O)Nc1cccc(S(=O)(=O)N2CCOCC2)c1 get here?
n

Just curious, what result did Cc1cc(Br)ccc1NC(=O)c1cnc(N2CCN(c3ccccn3)CC2)c2ccccc12 get here?
y

Just curious, what result did N#C/C(=C\c1ccccc1)c1n[nH]c(Cn2cncn2)n1 get here?
n

Just curious, what result did Cc1ccnc(NC(=O)c2ccc(Cl)c([N+](=O)[O-])c2)c1 get here?
n

---

Assay: qHTS for Inhibitors of human tyrosyl-DNA phosphodiesterase 1 (TDP1): qHTS in cells in presence of CPT; further: nearly all actives have a fitted effect of over 55% in size
Settings: chicken DT40 Tdp1-/-;hTDP1 cells + 20 nM CPT, ATP luminescence, 48 h; series mostly up to 46.2 µM
Out of some 420,000 compounds screened, about 50,000 (12%) were called active. About 26% were inconclusive and are not listed. The call rests on the fitted dose curve; in most records, active means well fitted inhibition curve with a large enough effect; inconclusive means small, poorly fitted or top-dose-only effect; inactive means flat fitted curve, though single readings scatter. This excerpt belongs to a sample that is enriched for actives.
I would appreciate it if you answered using one of these outcomes: T = active, F = inactive

// known answers, use as guide
>  <compound>
Cc1ccc(-n2c(SCC(=O)Nc3ncc(Cl)cc3Cl)nc3ccccc32)cc1

>  <class>
T

$$$$
>  <compound>
COc1ccc(NC(=O)c2ccccc2CC[N+](=O)[O-])cc1

>  <class>
F

$$$$
>  <compound>
Cn1c(-c2ccccc2)c[n+]2c1CCCCC2

>  <class>
F

$$$$
>  <compound>
COC(=O)C1CCN(C(=O)NC2CC(=O)N(c3ccc4c(c3)OCCO4)C2)CC1 (stereo unspecified)

>  <class>
F

$$$$
>  <compound>
Clc1ccc(C[n+]2cc(-c3ccc(Cl)cc3)n3c2CCC3)cc1

>  <class>
T

$$$$

API: the following record is the query input.
Just curious, what result did Cc1ccc(C(=O)NCCN2CCOCC2)cc1C get here?
F
